Data origin: patent US4145430A

Target: β-lactamase from Ps. aeruginosa Dalgleish (Pseudomonas aeruginosa)
Sequence (P16897 18-288): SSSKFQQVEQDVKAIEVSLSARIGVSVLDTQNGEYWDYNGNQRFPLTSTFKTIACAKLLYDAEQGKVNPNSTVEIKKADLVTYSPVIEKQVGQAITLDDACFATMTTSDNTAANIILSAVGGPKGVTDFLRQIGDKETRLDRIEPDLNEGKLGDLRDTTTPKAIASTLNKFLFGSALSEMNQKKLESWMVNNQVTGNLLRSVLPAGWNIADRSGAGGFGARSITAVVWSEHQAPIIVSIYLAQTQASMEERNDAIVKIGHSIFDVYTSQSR
Experiment: β-lactamase inhibition I50
result_type: pIC50
Worth noting: pIC50 values are minus log10 of concentrations stated in mol/L.

**Q:** For the molecule shown here, `C=CC1=CN2C(=O)C[C@H]2O1` , give the reported pIC50.
**A:** 6.54
